Tested on: CCRF-CEM leukemia
Test protocol: NCI tumour cell line growth inhibition, 48 h
Outcome measure: TGI (µM)
A number alone suffices; assume µM.

Compound | Measure unit | TGI
CC(C)NC(=O)OCCN=c1c2ccccc2ccc2ccccc12 | µM | 62.5
C#C[C@]1(O)CC[C@H]2[C@@H]3CCC4=C/C(=N/OC(=O)c5cccc6c(=O)c7ccccc7[nH]c56)CC[C@@H]4[C@H]3CC[C@@]21C | µM | 39.1

Q: Query (compound): C=C(Cl)C(C)(Cl)CCC(Br)C(C)(C)Cl (stereo not given) ; field requested: TGI
A: 67.2

###

System: BT-549 breast
Test protocol: NCI tumour cell line growth inhibition, 48 h
Outcome measure: TGI (µM)
A number alone suffices; assume µM.

Take a look at these entries with their results.
Compound | TGI, µM
O=c1c2ccccc2c(=O)c2c1[nH]c1c(-c3ccccc3)c(-c3ccccc3)c(=O)c12 | 4.69
C=C(Cl)C(C)(Cl)CCC(Br)C(C)(C)Cl (configuration not stated) | 47.2

In the following, a different compound is considered.
Q: Query (compound): COc1cc(NC(C)CCCN)c2nccc(C)c2c1 (configuration not stated) ; field requested: TGI
A: 56.7

###

System: A498 renal
Test protocol: NCI tumour cell line growth inhibition, 48 h
// TGI lookup, one value per entry

Take a look at these entries with their results.
Molecule | TGI
O=c1cccc(C#CC#CC2=CCCCC2)o1 | 36.8 µM
CC(C)(Cl)C(Br)CCC(=CCCl)CBr (mixture of isomers) | 9.22 µM
C=C1C(=O)OC2/C=C(\COC(C)=O)CCC(OC(C)=O)C3=CC(OC3=O)C12 (stereo unspecified) | 34.1 µM

Q: Query (molecule): COc1cccc(C#Cc2ccccc2C#CCCCCO)c1 ; field requested: TGI
A: 23.8 µM

Q: Query (molecule): NC(CCC(=O)NC(CSCC1C(=O)Nc2ccccc21)C(=O)NCC(=O)O)C(=O)O (stereo unspecified) ; field requested: TGI
A: 33.1 µM

Q: Query (molecule): On1c(-c2ccccc2)nc2ccccc2c1=S ; field requested: TGI
A: > 100 µM

Q: Query (molecule): O=C(c1ccccc1)C1OC12C(=O)Nc1ccccc12 (stereo unspecified) ; field requested: TGI
A: > 100 µM

Q: Query (molecule): NNC(=O)CSc1nc2ccccc2c(=O)n1N ; field requested: TGI
A: > 100 µM

Q: Query (molecule): COC(=O)C1=C(C)NC(C)=C(C(=O)OC)C1c1nc2sccn2c1[N+](=O)[O-] ; field requested: TGI
A: > 100 µM

Q: Query (molecule): COc1ccc2c(cnc3c4cc(OC)c(OC)cc4ccc23)c1 ; field requested: TGI
A: > 100 µM

Q: Query (molecule): O=C1CSC(c2ccc(Cl)cc2Cl)N1c1ccc(F)cc1 (stereo unspecified) ; field requested: TGI
A: 29.8 µM

###

Test system: HOP-62 NSCLC
Test protocol: NCI tumour cell line growth inhibition, 48 h
// TGI lookup, one value per entry

Compound | Tgt | Value observed
CCOC(=O)NC(Nc1cccc(C(F)(F)F)c1)(C(F)(F)F)C(F)(F)F | HOP-62 NSCLC | > 100 µM

Q: Query (compound): COc1cc(/C=C/c2ccc(OC)c(OC)c2)cc(OC)c1 ; field requested: TGI
A: > 100 µM

###

System: IGROV1 ovarian
Test protocol: NCI tumour cell line growth inhibition, 48 h
Outcome measure: TGI

Molecule | Outcome measure | Value observed
O=C(c1ccccc1)C1OC12C(=O)Nc1ccccc12 (stereo not given) | TGI | > 100 µM
C/C(N=NC(=S)N(C)C)=C1\C=CC=CN1O | TGI | > 100 µM
Nc1ccn(C2CCC(CO)O2)c(=O)n1 (stereo not given) | TGI | > 1000 µM
CC1=CC(C/C(C)=C/COc2ccc3ccc(=O)oc3c2)OC1=O (stereo not given) | TGI | > 100 µM

In the following, a different molecule is considered.
Q: Query (molecule): Oc1cccc(-c2nc3cc(F)ccc3s2)c1 ; field requested: TGI
A: 33.1 µM

###

System: SR leukemia
Test protocol: NCI tumour cell line growth inhibition, 48 h
Outcome measure: TGI (µM)
A number alone suffices; assume µM.

Q: Query (compound): CN(C)C(=O)[C@H](O)[C@H](Cc1ccccc1)NC(=O)c1cc2cc(Cl)ccc2[nH]1 ; field requested: TGI
A: 88.7

Q: Query (compound): CCCCCCCCCCCC(=O)OCC1OC(OC)C(NC(=O)N(CCCl)N=O)C(O)C1O (stereo not drawn) ; field requested: TGI
A: 18.6

Q: Query (compound): COc1ccc(C(=O)COc2ccc(/C=C3\COc4ccc(OC)cc4C3=O)cc2)cc1 ; field requested: TGI
A: 5.91

###

Tested on: HS 578T breast
Test protocol: NCI tumour cell line growth inhibition, 48 h
// TGI lookup, one value per entry

Molecule | Outcome measure | Value observed
COc1ccc(/C=C/C(=O)C(CC2CCC2)C(=O)/C=C/c2ccc(OC)c(OC)c2)cc1OC | TGI | > 100 µM
N#Cc1c(Cl)cc(Cl)n2c1nc1ccccc12 | TGI | 32.8 µM
CC(C)=CCNc1ncnc2c1ncn2CCC#N | TGI | > 100 µM
CC1=C[C@H]2c3c(c(O)c(O)c4oc(-c5ccccc5)cc(=O)c34)[C@H](c3cc(O)c(O)c4oc(-c5ccccc5)cc(=O)c34)[C@H]2C(C)(C)C1 | TGI | 10.2 µM
Nc1nc(F)nc2c1ncn2C1OC(CO)C(O)C1O (stereo not given) | TGI | > 100 µM

In the following, a different molecule is considered.
Q: I'm curious: which TGI was measured for C[N+]12CCCCC1C(CN1C(=O)Cc3c4ccccc4c(c4ccccc34)CC1=O)CCC2 (stereo not given) tested on HS 578T breast?
A: > 100 µM

###

Tested on: NCI-H23 lung
Test protocol: NCI tumour cell line growth inhibition, 48 h
// TGI lookup, one value per entry

Take a look at these entries with their results.
Molecule | Tgt | TGI
O=C(O)c1ccc(OCc2nc3cc(C(F)(F)F)ccc3nc2-c2ccccc2)cc1 | NCI-H23 lung | > 100 µM
COc1ccc(CC2NCCc3cc(OC)c(OC)cc32)cc1Br (centres undefined) | NCI-H23 lung | 85.7 µM
CCn1c(SCc2ccc(C)cc2)nnc1-c1nn(-c2ccc(Cl)cc2Cl)c(-c2ccc(Cl)cc2)c1C | NCI-H23 lung | 12.5 µM

Q: I'm curious: which TGI was measured for O=C1[C@@H]2C(c3ccccc3F)=NO[C@@H]2C(=O)N1c1ccc(Cc2ccc(N3C(=O)[C@H]4C(c5ccccc5F)=NO[C@H]4C3=O)cc2)cc1 tested on NCI-H23 lung?
A: > 100 µM

Q: I'm curious: which TGI was measured for Br[C](Br)(Br)[Hg][c]1ccccc1 tested on NCI-H23 lung?
A: 23 µM

Q: I'm curious: which TGI was measured for CCC(=O)ONC(=O)Cn1ccc([N+](=O)[O-])n1 tested on NCI-H23 lung?
A: > 100 µM

Q: I'm curious: which TGI was measured for O=c1c(C(c2ccc(Cl)cc2)c2c(O)c3ccccc3n(-c3ccccc3)c2=O)c(O)c2ccccc2n1-c1ccccc1 tested on NCI-H23 lung?
A: > 100 µM

Q: I'm curious: which TGI was measured for Cn1c2ccccc2c(=NNc2cccc(C(=O)O)c2)c2ccccc21 tested on NCI-H23 lung?
A: 32 µM

Q: I'm curious: which TGI was measured for CCC1(C)C=Cc2c(cc(O)c3c(=O)c4ccccc4n(C)c23)O1 (centres undefined) tested on NCI-H23 lung?
A: > 10 µM

###

Test system: NCI-H23 lung
Test protocol: NCI tumour cell line growth inhibition, 48 h
Outcome measure: TGI

Take a look at these entries with their results.
Compound | TGI
O=C1C(=Cc2ccccc2O)N=C(c2ccccc2)N1n1c(-c2ccccc2)nc2ccccc2c1=O | 89.5 µM
CC(=O)O[C@]12CCCCCC1C1(O)C(O)CCCC[C@H]12 (stereo not given in full) | > 100 µM
O=C1CC2c3ccccc3CCC2c2ccccc21 (stereo not given) | 69 µM
Nc1ccc(C(=O)N2CCC[C@H]2CO)c(N)c1 | > 100 µM
O=C1Nc2ccc(F)cc2/C1=C/c1ccc[nH]1 | > 25 µM
CN(CCC#N)c1ccc(/C=C(\C#N)c2ccc(Br)cc2)cc1 | > 100 µM
COC(=O)C1CCCN1C(=O)C(Cc1cn(S(=O)(=O)c2ccc(C)cc2)cn1)NC(=O)OC(C)(C)C (stereo not given) | > 100 µM
CCOC(=O)c1ccc(C)c(N=NN(C)C)c1 | > 100 µM

Q: Query (compound): O=C1NC2OC(C(O)CO)C(O)C2O1 (stereo not given) ; field requested: TGI
A: > 100 µM

###

Tested on: HCC-2998 colon
Test protocol: NCI tumour cell line growth inhibition, 48 h
// TGI lookup, one value per entry

Compound | Outcome measure | Value observed
ClCC[N+]12CC[N+](CCCl)(CC1)C2 | TGI | > 100 µM
COc1ccc2nc(NC(=O)C(=O)C(C#N)c3ccc([N+](=O)[O-])cc3)sc2c1 (stereo not given) | TGI | > 100 µM
CCCCCCCCCCCC(=O)OCC1OC(OC)C(NC(=O)N(CCCl)N=O)C(O)C1O (stereo not given) | TGI | 33.2 µM
O=C1CCCC[C@H]1[C@H]1CCC[C@@H]([C@H]2CCCCC2=O)C1=O | TGI | > 100 µM

In the following, a different compound is considered.
Q: Query (compound): CCOC(=O)c1ccc(C)c(N=NN(C)C)c1 ; field requested: TGI
A: > 100 µM
